# test target: HLA DRB1*0802 (human)
# method summary: competition with 125I probe peptide, purified HLA; crude peptide batch
measurement kind: IC50 (µM)
State just the number; it will be interpreted in µM.

Ask | Input LQAIELQLTLETIYN (modifications not checked) [HPV16.E2.070 HTL epitope] , output reported IC50.
Reply | 7.61
